Taken from patent US10934274B2.

Target protein (sequence): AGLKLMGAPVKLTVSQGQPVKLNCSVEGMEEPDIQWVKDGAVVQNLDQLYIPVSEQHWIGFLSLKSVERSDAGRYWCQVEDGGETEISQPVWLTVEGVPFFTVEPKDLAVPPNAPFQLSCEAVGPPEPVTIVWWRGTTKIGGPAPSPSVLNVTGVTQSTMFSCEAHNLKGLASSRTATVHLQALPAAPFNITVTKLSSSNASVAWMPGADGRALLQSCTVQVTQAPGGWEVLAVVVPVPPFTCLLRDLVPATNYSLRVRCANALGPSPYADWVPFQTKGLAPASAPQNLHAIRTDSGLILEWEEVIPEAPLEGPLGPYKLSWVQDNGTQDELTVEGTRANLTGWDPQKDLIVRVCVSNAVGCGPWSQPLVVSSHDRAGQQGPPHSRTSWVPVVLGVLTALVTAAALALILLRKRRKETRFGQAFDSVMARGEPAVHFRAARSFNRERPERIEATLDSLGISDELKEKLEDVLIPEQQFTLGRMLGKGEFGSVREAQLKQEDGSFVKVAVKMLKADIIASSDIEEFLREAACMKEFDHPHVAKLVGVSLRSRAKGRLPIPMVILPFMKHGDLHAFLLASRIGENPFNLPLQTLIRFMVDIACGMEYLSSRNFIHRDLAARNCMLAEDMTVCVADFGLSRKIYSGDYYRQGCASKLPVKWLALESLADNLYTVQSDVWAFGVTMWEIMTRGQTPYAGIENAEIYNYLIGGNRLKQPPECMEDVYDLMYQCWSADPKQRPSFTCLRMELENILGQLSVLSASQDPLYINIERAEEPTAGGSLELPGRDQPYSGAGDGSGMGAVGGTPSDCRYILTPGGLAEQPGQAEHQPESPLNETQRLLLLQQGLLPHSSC
pKd: −log10 of the molar value.
outcome measure: pKd

Below are worked cases with known answers.
{"compound": "CCOc1cn(-c2cnc(C(=O)O)nc2)nc1C(=O)Nc1ccc(Oc2ccnc3cc(OC)c(OC)cc23)cn1 [Compound 88]", "pKd": "≤ 6.00"}
{"compound": "COc1cc2c(Oc3ccc(NC(=O)c4nn(-c5cnc(N)nc5)cc4OCC(F)(F)F)nc3)ccnc2cc1OC(C)C [Compound 257]", "pKd": "> 7.00"}
{"compound": "CCOc1cn(CCOC(F)(F)F)nc1C(=O)Nc1ccc(Oc2ccnc3cc(OC)c(OC)cc23)cn1 [Compound 38]", "pKd": "6.00 to 7.00"}

Q) GET /values?readout=pKd&item= CCOc1cn(-c2nc[nH]n2)nc1C(=O)Nc1ccc(Oc2ccnc3cc(OC)c(OC)cc23)cn1 [Compound 168]
A) > 7.00

Q) Please report the recorded pKd for CCOc1cn(-c2cnc(C(F)(F)F)cn2)nc1C(=O)Nc1ccc(Oc2ccnc3cc(OC)c(OC)cc23)cn1 [Compound 159] .
A) ≤ 6.00

Q) Any idea what its pKd is? The compound is CCOc1cn(-c2cnccn2)nc1C(=O)Nc1ccc(Oc2ccnc3cc(OC)c(OC)cc23)cn1 [Compound 36]
A) > 7.00

###

subject of test: Mer (Homo sapiens)
Sequence (Q12866 21-999): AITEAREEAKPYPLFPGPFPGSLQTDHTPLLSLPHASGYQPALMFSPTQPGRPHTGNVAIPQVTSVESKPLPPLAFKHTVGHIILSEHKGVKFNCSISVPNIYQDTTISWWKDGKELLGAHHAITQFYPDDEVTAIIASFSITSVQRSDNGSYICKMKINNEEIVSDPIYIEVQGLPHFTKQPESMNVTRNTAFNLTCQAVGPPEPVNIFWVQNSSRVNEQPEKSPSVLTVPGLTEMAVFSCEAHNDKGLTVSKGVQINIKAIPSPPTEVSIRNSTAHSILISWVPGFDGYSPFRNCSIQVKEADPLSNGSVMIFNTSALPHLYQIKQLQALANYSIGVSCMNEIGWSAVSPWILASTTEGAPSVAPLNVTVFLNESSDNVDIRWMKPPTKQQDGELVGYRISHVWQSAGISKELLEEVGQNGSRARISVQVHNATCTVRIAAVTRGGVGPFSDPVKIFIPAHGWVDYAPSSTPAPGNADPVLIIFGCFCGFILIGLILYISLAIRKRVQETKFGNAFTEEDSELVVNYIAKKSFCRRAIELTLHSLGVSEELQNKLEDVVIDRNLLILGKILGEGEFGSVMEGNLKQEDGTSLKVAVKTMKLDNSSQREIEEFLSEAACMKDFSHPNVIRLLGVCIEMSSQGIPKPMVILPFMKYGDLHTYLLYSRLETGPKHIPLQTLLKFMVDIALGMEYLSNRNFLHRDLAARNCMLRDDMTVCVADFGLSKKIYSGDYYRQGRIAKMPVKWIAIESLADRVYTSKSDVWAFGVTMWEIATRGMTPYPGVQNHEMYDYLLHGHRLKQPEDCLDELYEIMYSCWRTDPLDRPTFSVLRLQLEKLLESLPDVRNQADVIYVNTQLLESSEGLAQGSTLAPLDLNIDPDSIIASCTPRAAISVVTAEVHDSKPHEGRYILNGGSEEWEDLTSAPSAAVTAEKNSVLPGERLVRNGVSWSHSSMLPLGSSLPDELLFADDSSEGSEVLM
This listing pairs molecules with measured Kd.

# count of solved cases: 5
{"molecule": "CCOc1cn(CC2CCN(C)CC2)nc1C(=O)Nc1ccc(Oc2ccnc3cc(OC)c(OC)cc23)cc1F", "Kd": "0.1 to 1 µM"}
{"molecule": "CCOc1cn(-c2cccnc2)nc1C(=O)Nc1ccc(Oc2ccnc3cc(OC)c(OC)cc23)cc1F", "Kd": "< 0.1 µM"}
{"molecule": "CCOc1cn(-c2ncc(Cl)cc2C#N)nc1C(=O)Nc1ccc(Oc2ccnc3cc(OC)c(OC)cc23)cn1", "Kd": "< 0.1 µM"}
{"molecule": "CCOc1cnn(C2CCN(C)C2)c1C(=O)Nc1ccc(Oc2ccnc3cc(OC)c(OC)cc23)cn1 (stereo not drawn)", "Kd": "0.1 to 1 µM"}
{"molecule": "CCOc1cn(Cc2cnccc2C)nc1C(=O)Nc1ccc(Oc2ccnc3cc(OC)c(OC)cc23)cc1F", "Kd": "< 0.1 µM"}

Q) Please state recorded Kd (tested on Mer (Homo sapiens)) of CCOc1cn(-c2cnccc2CCN(C)C)nc1C(=O)Nc1ccc(Oc2ccnc3cc(OC)c(OC)cc23)cn1
A) < 0.1 µM

Q) Request: Kd, test system Mer (Homo sapiens), entry CCOc1cn(-c2ccc(C(F)(F)F)cc2F)nc1C(=O)Nc1ccc(Oc2ccnc3cc(OC)c(OC)cc23)cn1
A) < 0.1 µM

Q) Provide the documented Kd with Mer (Homo sapiens) as the system for CCOc1cn(-c2ccc(OC(F)(F)F)cc2Cl)nc1C(=O)Nc1ccc(Oc2ccnc3cc(OC)c(OC)cc23)cn1
A) < 0.1 µM

###

subject of test: Axl (Homo sapiens)
Sequence (P30530 26-894): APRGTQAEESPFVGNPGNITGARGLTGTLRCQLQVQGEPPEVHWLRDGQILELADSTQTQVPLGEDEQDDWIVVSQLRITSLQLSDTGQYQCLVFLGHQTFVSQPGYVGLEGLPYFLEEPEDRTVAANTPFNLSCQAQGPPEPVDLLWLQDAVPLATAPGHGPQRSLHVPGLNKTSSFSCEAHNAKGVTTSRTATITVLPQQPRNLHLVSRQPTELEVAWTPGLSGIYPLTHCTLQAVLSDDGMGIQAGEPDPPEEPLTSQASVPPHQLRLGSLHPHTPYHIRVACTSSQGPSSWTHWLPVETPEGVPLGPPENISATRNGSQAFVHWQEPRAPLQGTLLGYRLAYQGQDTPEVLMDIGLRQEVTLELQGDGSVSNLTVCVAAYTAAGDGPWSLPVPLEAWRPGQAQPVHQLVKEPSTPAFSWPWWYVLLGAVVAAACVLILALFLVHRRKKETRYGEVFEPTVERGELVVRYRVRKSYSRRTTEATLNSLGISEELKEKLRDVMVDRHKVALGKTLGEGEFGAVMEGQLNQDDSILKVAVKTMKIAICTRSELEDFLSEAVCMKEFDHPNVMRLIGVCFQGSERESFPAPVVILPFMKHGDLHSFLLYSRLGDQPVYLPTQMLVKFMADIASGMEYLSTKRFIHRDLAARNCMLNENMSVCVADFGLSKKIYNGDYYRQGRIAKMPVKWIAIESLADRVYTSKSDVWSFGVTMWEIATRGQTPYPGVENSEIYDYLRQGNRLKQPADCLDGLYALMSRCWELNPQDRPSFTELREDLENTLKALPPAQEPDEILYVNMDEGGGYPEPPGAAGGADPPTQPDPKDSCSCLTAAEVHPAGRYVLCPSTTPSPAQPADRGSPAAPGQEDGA
# reported Kd; entries follow

Examples with their reported Kd follow.
{"molecule": "CCOc1cn(-c2ccc(OC(F)(F)F)cc2F)nc1C(=O)Nc1ccc(Oc2ccnc3cc(OC)c(OC)cc23)cn1", "outcome measure": "Kd", "result": "< 100 nM"}
{"molecule": "CCOc1c(C(=O)Nc2ccc(Oc3ccnc4cc(OC)c(OC)cc34)cn2)nn(-c2cccnc2)c1C", "outcome measure": "Kd", "result": "< 100 nM"}
{"molecule": "CCOc1cn(C2CCN(C)C2)nc1C(=O)Nc1ccc(Oc2ccnc3cc(OC)c(OC)cc23)cn1 (centres unmarked)", "outcome measure": "Kd", "result": "100 to 1000 nM"}
{"molecule": "CCOc1cn(-c2cncnc2C(C)C)nc1C(=O)Nc1ccc(Oc2ccnc3cc(OC)c(OC)cc23)cn1", "outcome measure": "Kd", "result": "< 100 nM"}
{"molecule": "CCOc1cn(-c2cnc(N)nc2)nc1C(=O)Nc1ccc(Oc2ccnc3cc(OC)c(OC)cc23)cc1F", "outcome measure": "Kd", "result": "< 100 nM"}
{"molecule": "CCOc1cn(-c2cccnc2)nc1C(=O)Nc1ccc(Oc2ccnc3cc(OC(C)CC)c(OC)cc23)cn1 (centres unmarked)", "outcome measure": "Kd", "result": "< 100 nM"}
{"molecule": "CCOc1cn(-c2ccc(C(F)(F)F)cc2F)nc1C(=O)Nc1ccc(Oc2ccnc3cc(OC)c(OC)cc23)cn1", "outcome measure": "Kd", "result": "< 100 nM"}
{"molecule": "COc1cc2c(Oc3ccc(NC(=O)c4c(OCC(F)(F)F)cnn4-c4cnc(N)nc4)nc3)ccnc2cc1OC(C)C", "outcome measure": "Kd", "result": "100 to 1000 nM"}
{"molecule": "CCOc1cn(-c2cnccn2)nc1C(=O)Nc1cc(C)c(Oc2ccnc3cc(OC)c(OC)cc23)cn1", "outcome measure": "Kd", "result": "< 100 nM"}
{"molecule": "CCOc1cn(CCC(=O)O)nc1C(=O)Nc1ccc(Oc2ccnc3cc(OC)c(OC)cc23)cn1", "outcome measure": "Kd", "result": "100 to 1000 nM"}

Q) Fill in the blank: the reported Kd of CCOc1cn(CCN(C)C)nc1C(=O)Nc1ccc(Oc2ccnc3cc(OC)c(OC)cc23)cn1 is ____.
A) 100 to 1000 nM

Q) Consider the molecule shown here: COc1cc2nccc(Oc3ccc(NC(=O)c4nn(-c5cnc(N)cn5)cc4OCC4CC4)nc3)c2cc1OC What is its recorded Kd?
A) < 100 nM

Q) Consider the molecule shown here: CCOc1cn(-c2cnc(Cl)cn2)nc1C(=O)Nc1ccc(Oc2ccnc3cc(OC)c(OC)cc23)cn1 What is its recorded Kd?
A) < 100 nM

Q) Look at this molecule and give its reported Kd. CCOc1cn(-c2cnccc2C)nc1C(=O)Nc1ccc(Oc2ccnc3cc(OC)c(OC)cc23)cc1F
A) < 100 nM

Q) If you can, please state the reported Kd value of CCOc1cn(-c2cnc(N)cn2)nc1C(=O)Nc1ccc(Oc2ccnc3cc(OC)c(OC)cc23)cn1 .
A) < 100 nM

Q) Name the reported Kd value associated with the molecule CCOc1cn(-c2nccs2)nc1C(=O)Nc1ccc(Oc2ccnc3cc(OC)c(OC)cc23)cn1
A) < 100 nM

Q) Entry under review: CCOc1cn(-c2cccnc2Cl)nc1C(=O)Nc1ccc(Oc2ccnc3cc(OC)c(OC)cc23)cn1 . Reported Kd?
A) < 100 nM

Q) Give its Kd value. Item: CCOc1cnn(C2CCOC2)c1C(=O)Nc1ccc(Oc2ccnc3cc(OC)c(OC)cc23)cn1 (centres unmarked)
A) 100 to 1000 nM

Q) Entry CCOc1cn(C2CCN(C)CC2)nc1C(=O)Nc1ccc(Oc2ccnc3cc(OC)c(OC)cc23)cc1F : reported Kd = ?
A) 100 to 1000 nM

Q) # input molecule: CCOc1cn(C2CCNC2)nc1C(=O)Nc1ccc(Oc2ccnc3cc(OC)c(OC)cc23)cn1 (centres unmarked) ; wanted: its Kd
A) ≥ 1000 nM

Q) Entry COc1cc2nccc(Oc3ccc(NC(=O)c4nn(-c5cncnc5C5CC5)cc4OCC(F)(F)F)nc3)c2cc1OC : reported Kd = ?
A) < 100 nM

Q) Requested field: Kd. Item: CCOc1cnn(-c2cncs2)c1C(=O)Nc1ccc(Oc2ccnc3cc(OC)c(OC)cc23)cn1
A) < 100 nM

Q) Item under review: CCOc1cn(-c2ncc(Cl)cc2CN(C)C)nc1C(=O)Nc1ccc(Oc2ccnc3cc(OC)c(OC)cc23)cn1 . Reported Kd?
A) 100 to 1000 nM
